- system: FXR ligand binding domain (GST-FXR LBD fusion protein) (Homo sapiens)
- Sequence (Q96RI1 193-472 isoform Q96RI1-2 limits assumed): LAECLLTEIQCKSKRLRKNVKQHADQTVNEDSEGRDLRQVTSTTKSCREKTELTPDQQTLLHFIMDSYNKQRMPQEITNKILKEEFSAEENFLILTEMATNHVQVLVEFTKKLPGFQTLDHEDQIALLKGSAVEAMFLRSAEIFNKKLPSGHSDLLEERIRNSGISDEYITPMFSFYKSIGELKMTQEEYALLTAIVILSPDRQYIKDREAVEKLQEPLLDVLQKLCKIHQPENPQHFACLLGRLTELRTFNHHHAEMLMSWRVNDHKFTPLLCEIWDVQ
- assay: Radioligand binding assay (scintillation proximity, radioligand displacement)
- run conditions: GST-FXR LBD on SPA beads, 20 nM radioligand, test compound 6×10^−9 M to 2.5×10^−5 M
pIC50: −log10 of the molar value.
observable: pIC50

(P) CO[C@@H](c1ccccc1)c1nc2cc(F)c(F)cc2n1[C@H](C(=O)Nc1ccc(C(=O)O)cc1C)C1CCCCC1 (single isomer, unassigned) [Example 5B]
(Q) CO[C@H](c1ccccc1)c1nc2cc(F)c(F)cc2n1[C@H](C(=O)Nc1ccc(C(=O)O)cc1C)C1CCCCC1 (single isomer, unassigned) [Example 6B]
(R) CO[C@@H](c1ccccc1)c1nc2cc(F)c(F)cc2n1[C@@H](C(=O)Nc1ccc(C(=O)O)cc1C)C1CCCCC1 (single isomer, unassigned) [Example 5A]
// ascending sort on recorded pIC50 Lab note: final answer is the ordered label list.
P, R, Q
(P: 5.96, R: 6.52, Q: 7.22)
